# assay-details: Drug uptake in gerbil brain at 30 mg/kg, po
# Assay type: ADME, organism-based
# Set-up: dose 30 mg/kg, route oral
# measurement-setup: gerbillinae, in vivo, read-out: Drug uptake
measured-property: concentration

Requested read-out: concentration. Entry: `N[C@H]1CC[C@@](COCc2cc(C(F)(F)F)cc(C(F)(F)F)c2)(c2ccccc2)C1`
7.4 µM

====

The following are reported IC50 results, target or system Sodium-dependent serotonin transporter (Homo sapiens).
Give bare numbers, in µM.

Use these answered entries as a reference point.
compound	system-under-test	measurement
N[C@@H]1CC[C@@](COCc2cc(C(F)(F)F)cc(C(F)(F)F)c2)(c2ccccc2)C1	Sodium-dependent serotonin transporter (Homo sapiens)	0.13
FC(F)(F)c1cc(COCC2(c3ccccc3)CCC(N3CCCCC3)CC2)cc(C(F)(F)F)c1 (mixture of isomers)	Sodium-dependent serotonin transporter (Homo sapiens)	0.97

Respectfully, I request IC50 for each entry included below.
1. N[C@@H]1CC[C@](COCc2cc(C(F)(F)F)cc(C(F)(F)F)c2)(c2ccccc2)C1
2. CCN(CC)C1CCC(COCc2cc(C(F)(F)F)cc(C(F)(F)F)c2)(c2ccccc2)CC1 (mixture of isomers)
3. CN(C)C1CCC(COCc2cc(C(F)(F)F)cc(C(F)(F)F)c2)(c2ccccc2)C1 (mixture of isomers)

1. 0.21
2. 0.28
3. 0.057
